Target under test: Fyn (UniProt P06241)
Sequence (P06241 whole entry, looked up): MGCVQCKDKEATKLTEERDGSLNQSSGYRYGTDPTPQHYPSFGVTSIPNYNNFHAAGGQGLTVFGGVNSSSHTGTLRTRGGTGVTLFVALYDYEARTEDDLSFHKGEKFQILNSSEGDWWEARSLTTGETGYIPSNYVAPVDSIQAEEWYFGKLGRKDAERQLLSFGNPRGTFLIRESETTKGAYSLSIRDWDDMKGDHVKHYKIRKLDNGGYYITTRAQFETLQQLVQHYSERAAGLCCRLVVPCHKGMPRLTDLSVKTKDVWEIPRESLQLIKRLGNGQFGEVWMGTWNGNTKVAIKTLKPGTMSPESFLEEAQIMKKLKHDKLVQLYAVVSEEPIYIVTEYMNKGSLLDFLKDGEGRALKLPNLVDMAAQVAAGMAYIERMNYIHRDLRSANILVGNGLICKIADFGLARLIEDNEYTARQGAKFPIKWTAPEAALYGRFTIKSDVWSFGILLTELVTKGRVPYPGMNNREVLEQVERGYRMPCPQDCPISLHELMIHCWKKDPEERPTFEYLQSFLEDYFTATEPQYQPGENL
Test method notes: phosphorylation enrichment, bacterial display (enrichment ratio); higher = better substrate or ligand; peptides without Tyr show the background;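 further: 11-residue human phosphosite peptides and single-mutation variants displayed on the E. coli surface, counted by deep sequencing, each peptide's frequency after selection divided by its frequency in the unselected input library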;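 further: frequency after pTyr selection over input frequency; kinase dosed for 20-30% of maximal phosphorylation in three min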
# label = yes (1) if phosphorylation enrichment >= 0.5 else no (0)

ASLEAYCKHKF [RXRA_Y403_YF]    no (0)
KKKKQYKDKYL [CASK_Y708]    no (0)
PEVSGYCHFAD [TG_Y234_C237Y_YF]    yes (1)
QGCGIYKDYYR [PLA2G2D_Y82_S80G]    yes (1)
FEKNVYVDKNL [PTCHD3_Y688]    no (0)

In: Textbook exercise: given the entry ALECLYRREKR [TEKT5_Y195_H196R] , state whether its phosphorylation enrichment is greater than or equal to 0.5.
Out: yes (1)

In: Now the same for QDEHGYIFRCF [HSPB1_Y133_S135F]
Out: yes (1)

In: Follow-up entry: FSCLPYRRLAY [SLC52A2_Y305_G306R]
Out: yes (1)

----------
Target under test: Fyn (UniProt P06241)
Test method notes: phosphorylation enrichment, bacterial display (enrichment ratio); higher = better substrate or ligand; peptides without Tyr show the background
Assay endpoint: phosphorylation enrichment
Please respond with just the number, no unit label.

Use these answered entries as a reference point.
SVQVEYMKTIL [GLYATL2_Y127_D126E]    0.413
RLGNQHVNVMN [SLC3A1_Y461_Y461H]    0.627
QNTGVYYDLYG [PTPN11_Y62_D61V]    8.43

In: # get_value(readout='phosphorylation enrichment', item= IGCHAYGDQFR [IDH1_Y135_R132C_YF] )
Out: 0.495

In: Now the same for TGDFGYRTPGF [TNS2_Y668_A670T_YF]
Out: 0.457

In: Repeat for the following sequence: NGEDLYAGSTD [XRCC1_Y515_P514L]
Out: 0.66

In: Now consider DDPRRYQKYGY [OAS1_Y362] .
Out: 0.426

In: Now this one: SLFPGYNFRFA [P2RX7_Y291_YF]
Out: 0.472

In: Lookup CLGNQYVNVMN [SLC3A1_Y461_R456C]
Out: 0.403

In: Query CITIHYNFMCN [TP53_Y234_T230I_YF] next
Out: 0.46

In: And then VGTKQYMAPEV [ACVRL1_Y375_R374Q] , what is it?
Out: 0.432

In: Next record, please: VVQGLYKSMPK [KBTBD2_Y250]
Out: 0.34

In: Try this sequence too: KSSDVYVSFDC [SORL1_Y136_Y141C_YF]
Out: 5.22

In: Now consider QPGDICHQTWA [GBA_Y244_Y244C] .
Out: 0.478

In: Now consider CNSFQYGGGGG [NPPA_Y151_R150Q] .
Out: 0.436

In: // next record DQIDTYELSGA [DNM1_Y354_G359A]
Out: 0.964

----------
Tested on: c-Abl (mouse)
Test method notes: phosphorylation enrichment, bacterial display (enrichment ratio); higher = better substrate or ligand; peptides without Tyr show the background
# binarize phosphorylation enrichment: threshold 0.7 inclusive, high side label 1, low side label 0

KFLVGYEMLAQ [GALT_Y339_M336L]    label 0
RMDGKYACSYT [FLNB_Y704_T703K]    label 1
QFLMKYVWSAS [ABCD1_Y337]    label 1
NAPNSYGRRPI [CDKN2A_Y44]    label 1
FSIDHYLGKEM [G6PD_Y202_R198S_YF]    label 1
VHVEVYDRPSP    label 1
GSRGKYSSGFR [ATM_Y332]    label 0
CNPLRYPTIMI [OR6K6_Y160]    label 1

In: Reported phosphorylation enrichment at or above 0.7? KWHREYNFKYV [RICTOR_Y835_S837F]
Out: label 0

In: Lookup PRLMLYNPTTF [EGFR_Y270_P266R_YF]
Out: label 1

In: Repeat with GMSQAYSSSQR [DES_Y5]
Out: label 0

In: Try the sequence KLPFLYDDPFS [GPX2_Y127_P126L_YF]
Out: label 1

In: What do you have for ENFSEYQEISV [HEMGN_Y150_A154S] ?
Out: label 1

In: Next entry: VHNLDYYKMTT [FGFR3_Y647_K650M]
Out: label 0

In: Again, but for LQEKSYIKGTS [LCTL_Y331]
Out: label 1

In: Again, but for LDLSFYPTSSS [EMD_Y182_YF]
Out: label 1

----------
Collected phosphorylation enrichment values appear next to each entry.
Target under test: EPHB1 (UniProt P54762)
Sequence (P54762 whole entry, looked up): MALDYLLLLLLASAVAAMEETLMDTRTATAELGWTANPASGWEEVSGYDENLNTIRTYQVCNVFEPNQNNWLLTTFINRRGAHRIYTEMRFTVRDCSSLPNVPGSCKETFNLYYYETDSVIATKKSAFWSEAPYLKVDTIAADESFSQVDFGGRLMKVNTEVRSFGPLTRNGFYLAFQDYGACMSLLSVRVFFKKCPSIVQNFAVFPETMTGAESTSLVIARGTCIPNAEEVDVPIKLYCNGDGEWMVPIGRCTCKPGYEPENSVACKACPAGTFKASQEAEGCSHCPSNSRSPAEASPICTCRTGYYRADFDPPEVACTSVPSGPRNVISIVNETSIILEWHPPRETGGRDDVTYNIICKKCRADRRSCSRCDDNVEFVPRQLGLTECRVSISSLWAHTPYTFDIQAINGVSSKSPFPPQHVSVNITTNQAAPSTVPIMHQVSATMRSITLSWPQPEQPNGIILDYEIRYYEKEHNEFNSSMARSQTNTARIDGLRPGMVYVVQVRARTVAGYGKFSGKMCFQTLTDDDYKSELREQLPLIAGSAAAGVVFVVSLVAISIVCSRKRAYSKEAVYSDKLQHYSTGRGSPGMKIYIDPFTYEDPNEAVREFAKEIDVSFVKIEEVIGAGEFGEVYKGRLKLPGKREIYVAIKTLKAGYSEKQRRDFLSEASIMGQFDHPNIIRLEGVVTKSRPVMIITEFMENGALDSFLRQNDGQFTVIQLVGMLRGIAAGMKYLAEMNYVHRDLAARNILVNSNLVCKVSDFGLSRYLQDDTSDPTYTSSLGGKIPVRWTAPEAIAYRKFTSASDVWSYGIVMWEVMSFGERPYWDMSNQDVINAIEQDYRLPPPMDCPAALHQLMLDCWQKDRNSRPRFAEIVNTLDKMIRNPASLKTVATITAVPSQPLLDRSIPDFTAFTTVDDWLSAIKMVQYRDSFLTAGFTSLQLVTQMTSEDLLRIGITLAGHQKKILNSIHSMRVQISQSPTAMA
Test method notes: phosphorylation enrichment, bacterial display (enrichment ratio); higher = better substrate or ligand; peptides without Tyr show the background

VVFIKYLPEWT [PSEN1_Y240_L235V]    0.595
SVTCTYSSALN [TP53_Y126_P128S]    0.601

Shifting focus to the sequence that follows.
In: What is its phosphorylation enrichment for EPHB1 (UniProt P54762)? Entry: MALDIYRASFF [ALK_Y1278_R1275L_YF]
Out: 0.599

----------
Test system: AncSZ
Test method notes: phosphorylation enrichment, bacterial display (enrichment ratio); higher = better substrate or ligand; peptides without Tyr show the background
Assay endpoint: phosphorylation enrichment

PQGVRYIYTID [DCX_Y103]    1.73

Please turn your attention to the following entry.
In: Can you look up the measured phosphorylation enrichment of DQIDTYELSGA [DNM1_Y354_G359A] for me?
Out: 1.21

----------
System: c-Src
Test method notes: phosphorylation enrichment, bacterial display (enrichment ratio); higher = better substrate or ligand; peptides without Tyr show the background
phosphorylation enrichment listing for selected sequences.
Kindly provide the number alone.

Some sequences with known phosphorylation enrichment results, for comparison:
KNKNRYKNILP [PTPN11_Y279]    0.941
SLFPGYNFRFA [P2RX7_Y291_YF]    0.502

In: Give the measured phosphorylation enrichment of IKKFKYGIEEH [GJA1_Y137] .
Out: 0.336

In: And what about the sequence RAYSWYQHQRA [NDST1_Y714] ?
Out: 0.527

In: Would you kindly repeat that for FADIAYSYRHG [PAH_Y166_N167S] ?
Out: 0.714

In: Now consider YDEYRYRSFIK [CFTR_Y517_V520F] and answer again.
Out: 1.62

In: Let us now turn to VNTTLYEKFTF [TEK_Y1108_YF]
Out: 2.89

In: What would you report for KVKGEYDMTVP [AHNAK_Y964] ?
Out: 0.414

In: Would you mind doing KPVEEYANCHL [TF_Y593] as well?
Out: 0.547

In: Request: YSMGCYEIYLG [HMGCL_Y198_S201Y]
Out: 5.79

In: Repeat with EVLKNYNQQKD [GOLGA4_Y1551]
Out: 0.388

----------
Target under test: EPHB2 (UniProt P29323)
Sequence (P29323 whole entry, looked up): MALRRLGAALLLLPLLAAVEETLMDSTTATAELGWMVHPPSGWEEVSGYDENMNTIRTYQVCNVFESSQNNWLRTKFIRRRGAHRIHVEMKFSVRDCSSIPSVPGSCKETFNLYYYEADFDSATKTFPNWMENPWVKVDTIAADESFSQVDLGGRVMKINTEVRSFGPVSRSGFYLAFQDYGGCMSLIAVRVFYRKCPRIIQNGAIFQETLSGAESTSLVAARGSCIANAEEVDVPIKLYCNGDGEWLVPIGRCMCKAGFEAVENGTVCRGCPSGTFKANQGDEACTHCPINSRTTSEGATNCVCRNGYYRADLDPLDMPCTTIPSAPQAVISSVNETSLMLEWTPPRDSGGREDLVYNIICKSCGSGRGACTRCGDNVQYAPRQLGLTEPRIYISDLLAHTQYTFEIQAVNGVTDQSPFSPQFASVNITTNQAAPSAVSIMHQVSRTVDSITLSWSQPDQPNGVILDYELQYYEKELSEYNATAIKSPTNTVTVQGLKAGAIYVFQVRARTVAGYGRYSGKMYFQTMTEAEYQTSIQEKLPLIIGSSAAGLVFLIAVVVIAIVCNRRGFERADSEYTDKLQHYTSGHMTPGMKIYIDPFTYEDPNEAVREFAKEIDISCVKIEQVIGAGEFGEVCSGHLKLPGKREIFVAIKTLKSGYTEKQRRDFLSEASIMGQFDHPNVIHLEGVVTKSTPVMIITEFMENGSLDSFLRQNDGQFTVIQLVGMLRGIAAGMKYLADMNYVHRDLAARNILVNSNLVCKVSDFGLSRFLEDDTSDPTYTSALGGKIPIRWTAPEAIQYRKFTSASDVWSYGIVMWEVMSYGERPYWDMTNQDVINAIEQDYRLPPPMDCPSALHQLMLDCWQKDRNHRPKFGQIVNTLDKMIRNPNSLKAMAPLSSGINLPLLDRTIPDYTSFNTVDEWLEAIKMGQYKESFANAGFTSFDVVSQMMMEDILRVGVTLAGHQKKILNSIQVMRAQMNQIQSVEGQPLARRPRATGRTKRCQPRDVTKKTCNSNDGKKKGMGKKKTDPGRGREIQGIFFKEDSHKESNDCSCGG
Test method notes: phosphorylation enrichment, bacterial display (enrichment ratio); higher = better substrate or ligand; peptides without Tyr show the background
Rule: phosphorylation enrichment of 0.5 or more gives 1; anything lower gives -1.

Please review the following examples before continuing.
LIYTNYEVGKD [GSTP1_Y112_A114V]    1
NYYDTYIKTCL [IQGAP2_Y1445]    1
RAYSWYQHQRA [NDST1_Y714]    1
PQGVRYIYTID [DCX_Y103]    1
EAESWYQTKFE [KRT75_Y342_YF]    1
PIQLFYTRRNT [GHR_Y86]    1
HEGKIYEYNQV [ZNF665_Y162]    1
IFCIQYNICAF [MYH4_Y820_R823C]    1

In: Is phosphorylation enrichment for ESSKAYERALS [TTC37_Y1074] at or above 0.5?
Out: 1

In: Likewise for FAFQLYDLDRD [CHP2_Y123_YF] ?
Out: 1

In: // next record IHYPPYTDWNQ [ALDH3B2_Y365]
Out: 1

----------
Target under test: Jak2 (UniProt O60674)
Sequence (O60674 whole entry, looked up): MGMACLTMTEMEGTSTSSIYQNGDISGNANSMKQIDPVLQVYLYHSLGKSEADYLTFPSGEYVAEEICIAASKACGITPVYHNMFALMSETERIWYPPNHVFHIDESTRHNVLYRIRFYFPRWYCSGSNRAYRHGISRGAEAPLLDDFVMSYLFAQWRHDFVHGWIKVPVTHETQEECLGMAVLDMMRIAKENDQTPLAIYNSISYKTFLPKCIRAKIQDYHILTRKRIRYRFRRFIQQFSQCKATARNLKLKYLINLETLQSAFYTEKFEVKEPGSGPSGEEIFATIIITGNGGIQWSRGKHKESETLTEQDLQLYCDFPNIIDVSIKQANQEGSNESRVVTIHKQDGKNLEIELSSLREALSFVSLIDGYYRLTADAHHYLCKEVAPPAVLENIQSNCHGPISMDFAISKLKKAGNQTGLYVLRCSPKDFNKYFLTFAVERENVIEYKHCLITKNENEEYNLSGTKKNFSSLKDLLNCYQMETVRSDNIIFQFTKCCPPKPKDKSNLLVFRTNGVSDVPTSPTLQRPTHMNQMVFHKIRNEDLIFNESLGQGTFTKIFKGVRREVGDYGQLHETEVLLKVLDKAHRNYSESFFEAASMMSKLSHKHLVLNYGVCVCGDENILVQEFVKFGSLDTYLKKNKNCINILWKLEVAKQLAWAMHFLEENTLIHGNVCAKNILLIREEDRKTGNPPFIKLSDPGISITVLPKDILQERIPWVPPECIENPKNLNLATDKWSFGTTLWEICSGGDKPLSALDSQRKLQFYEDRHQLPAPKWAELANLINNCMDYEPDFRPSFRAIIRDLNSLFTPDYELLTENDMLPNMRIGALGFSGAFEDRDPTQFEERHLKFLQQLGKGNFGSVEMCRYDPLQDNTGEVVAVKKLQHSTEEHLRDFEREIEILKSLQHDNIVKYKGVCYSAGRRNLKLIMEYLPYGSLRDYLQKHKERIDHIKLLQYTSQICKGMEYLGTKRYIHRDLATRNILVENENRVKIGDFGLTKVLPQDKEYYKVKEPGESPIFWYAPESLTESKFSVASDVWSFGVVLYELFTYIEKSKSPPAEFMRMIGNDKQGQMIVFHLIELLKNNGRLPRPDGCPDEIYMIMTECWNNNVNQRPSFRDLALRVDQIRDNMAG
Test method notes: phosphorylation enrichment, bacterial display (enrichment ratio); higher = better substrate or ligand; peptides without Tyr show the background
Use 0.9 as the dividing line for phosphorylation enrichment, with the line itself on the label 1 side and lower values as label 0.

In: Quick check: does ALCHFYKLNII [ETV6_Y402_R399C_YF] have phosphorylation enrichment greater than or equal to 0.9?
Out: label 1

In: // repeat for CTTIHSNYMCN [TP53_Y234_Y234S] and report
Out: label 0

In: Can you check EKKDIYKAGEQ [CFH_Y1008_V1007I] next?
Out: label 0

In: Again, but for ETKTPYTVILI [SBDS_Y128_R126T]
Out: label 1

In: Same again, this time with GRQGIYTKNER [GPR143_Y231_E233K]
Out: label 0

// data source = the supplement of paper PMC10065799
